# test.name: In vitro microsomal stability, human
# Format: in vitro ADME
# condition: Human Microsome, same batch, 15 min
In plain terms, low Microsomal stability, % remaining, meaning strictly below 50%, gives fulfilled, and everything else gives not fulfilled.

Use the examples below as a reference point.
CC(C)(C)C[C@H]1N[C@@H](C(=O)NCCC(C)(O)CO)[C@H](c2cccc(Cl)c2)[C@@]12C(=O)Nc1cc(Cl)c(F)cc12 (some centres unmarked) : not fulfilled
CC(O)C(O)CCNC(=O)[C@@H]1N[C@H](CC(C)(C)C)[C@]2(C(=O)Nc3cc(Cl)c(F)cc32)[C@H]1c1cccc(Cl)c1 (some centres unmarked) : fulfilled

Consider the additional compound presented here.
[in] Field: below-cutoff. Rule: recorded Microsomal stability, % remaining strictly less than 50%. Subject: CC(C)(C)C[C@H]1N[C@@H](C(=O)NCC[C@H](O)CN2CCCC2)[C@H](c2cccc(Cl)c2)[C@@]12C(=O)Nc1cc(Cl)c(F)cc12
[out] not fulfilled
